Reference source: PubChem BioAssay (NCI)

system: SF-539 CNS; assay: NCI-60 one-dose screen, 48 h (100 = growth as untreated, 0 = no growth, -100 = all killed); conditions: 10 µM unless noted
The panel holds about 83,000 compounds, 20% with a hit somewhere; the sample as a whole holds those more often.
// bucketize growth: low (below -10%), intermediate (-10% to below 80%), high (80% or more)

{"COMPOUND": "CCCCCCOC(=O)CC1=C(C)/C(=C/c2[nH]c(-c3ccc[nH]3)cc2OC)N=C1C", "GROUP_LABEL": "low"}
{"COMPOUND": "Nc1n[nH]c2ccc([C@@H]3Nc4cc5[nH]ncc5cc4[C@H]4C5CCC(C5)[C@@H]34)cc12 (stereo partly drawn)", "GROUP_LABEL": "low"}
{"COMPOUND": "Cn1cc(-c2nonc2-c2c[nH]c3ccccc23)c2ccccc21", "GROUP_LABEL": "low"}
{"COMPOUND": "COc1cccc(NC(=O)c2cccc(C3CCc4c(cc(OC)c(OC)c4OC)O3)c2)c1 (stereo not drawn)", "GROUP_LABEL": "high"}
{"COMPOUND": "S=c1[nH]c2cc(Cl)ccc2o1", "GROUP_LABEL": "high"}
{"COMPOUND": "Cc1ccc(S(=O)(=O)n2cc(C3C(Cl)C(=O)N3c3ccc(N4CCOCC4=O)cc3)c3ccccc32)cc1 (stereo not drawn)", "GROUP_LABEL": "intermediate"}
{"COMPOUND": "CCOC(=O)NN1CC(O)=C(c2nc(-c3ccc(Br)cc3)cs2)C1=N", "GROUP_LABEL": "high"}
{"COMPOUND": "COc1ccc(-c2oc(=O)ccc2-c2cc(OC)c(OC)c(OC)c2)cc1O", "GROUP_LABEL": "low"}
{"COMPOUND": "O=C1/C(=C/c2ccccc2[N+](=O)[O-])COc2ccc(O)cc21", "GROUP_LABEL": "low"}
{"COMPOUND": "CCOC(=O)Nc1nc2ccc(SCC(C)C)cc2s1", "GROUP_LABEL": "intermediate"}
{"COMPOUND": "CCCCCCCC/C=C\\CCCCCCCCOc1ccccc1CC(=O)NCC[N+]1(C)CCCCC1", "GROUP_LABEL": "high"}
{"COMPOUND": "CCCCCCCC/C=C\\CCCCCCCCOc1ccc(CC(=O)NCC[N+](C)(C)C)cc1", "GROUP_LABEL": "intermediate"}

###

test system: A549/ATCC NSCLC; assay: NCI-60 one-dose screen, 48 h (100 = growth as untreated, 0 = no growth, -100 = all killed); settings: 10 µM unless noted
About 83,000 compounds went through this panel and 20% of them were active in at least one assay; those are over-represented in the sample as a whole.

{"MOLECULE": "O=C1/C(=C/c2cccc([N+](=O)[O-])c2)COc2ccc(O)cc21", "ASSAY_TARGET": "A549/ATCC NSCLC", "MEASURE_UNIT": "%", "growth": 89.2}
{"MOLECULE": "CCCCc1oc2ccccc2c1C(=O)c1ccc(O)cc1", "ASSAY_TARGET": "A549/ATCC NSCLC", "MEASURE_UNIT": "%", "growth": 76.6}
{"MOLECULE": "COc1ccc(C(c2cc(OC)c(OC)c(OC)c2)N2CCCC2)cc1 (stereo not given)", "ASSAY_TARGET": "A549/ATCC NSCLC", "MEASURE_UNIT": "%", "growth": 77.7}
{"MOLECULE": "COC(=O)C1=C(C(=O)Nc2cccnc2)C2OC1(C(Cc1ccccc1)Oc1ccccc1)C1OC21 (stereo not given)", "ASSAY_TARGET": "A549/ATCC NSCLC", "MEASURE_UNIT": "%", "growth": 88.8}
{"MOLECULE": "O=C1Nc2ccc(F)cc2/C1=N/c1nnc(Sc2ccccc2)s1", "ASSAY_TARGET": "A549/ATCC NSCLC", "MEASURE_UNIT": "%", "growth": 96.8}
{"MOLECULE": "CCOc1ccc(/C=N\\N=C\\c2ccc(OCC)cc2)cc1", "ASSAY_TARGET": "A549/ATCC NSCLC", "MEASURE_UNIT": "%", "growth": 94.2}
{"MOLECULE": "O=c1[nH]c(-c2ccc(Cl)cc2)cn1-c1ccc(-n2cc(-c3ccc(Cl)cc3)[nH]c2=O)cc1", "ASSAY_TARGET": "A549/ATCC NSCLC", "MEASURE_UNIT": "%", "growth": 93.4}
{"MOLECULE": "Nc1c(C(=O)Nc2cccc3ncccc23)sc2nc3c(cc12)C(=O)CCC3", "ASSAY_TARGET": "A549/ATCC NSCLC", "MEASURE_UNIT": "%", "growth": 49.6}
{"MOLECULE": "COc1ccc(/C(C)=C(\\c2ccc(Cl)cc2)c2ccc(OCCN3CCCC3)cc2)cc1", "ASSAY_TARGET": "A549/ATCC NSCLC", "MEASURE_UNIT": "%", "growth": 25.5}
{"MOLECULE": "COc1ccc2cc(-c3cnc4nonc4n3)ccc2c1", "ASSAY_TARGET": "A549/ATCC NSCLC", "MEASURE_UNIT": "%", "growth": 36}
{"MOLECULE": "C=CC1(C)C(O[Si](C)(C)C(C)(C)C)CC2C3OC(=O)NC31c1cccc3c1[C@H](C(=O)N3C)C2(C)C (stereo not given in full)", "ASSAY_TARGET": "A549/ATCC NSCLC", "MEASURE_UNIT": "%", "growth": 41.7}
{"MOLECULE": "CC1CN=C(c2cccc(-c3ccc(-c4ccccc4)o3)c2)N1 (stereo not given)", "ASSAY_TARGET": "A549/ATCC NSCLC", "MEASURE_UNIT": "%", "growth": 12.2}
{"MOLECULE": "O=C(c1ccc(Cl)cc1Cl)N1c2ccccc2Sc2ccccc21", "ASSAY_TARGET": "A549/ATCC NSCLC", "MEASURE_UNIT": "%", "growth": 54.2}
{"MOLECULE": "CCCCCCCCCCCCCCCCCCOc1ccccc1CC(=O)NCC[N+]1(C)CCOCC1", "ASSAY_TARGET": "A549/ATCC NSCLC", "MEASURE_UNIT": "%", "growth": 55.6}
{"MOLECULE": "C#Cc1cccc(Nc2nc3ccc([N+](=O)[O-])cc3nc2Nc2cccc(C#C)c2)c1", "ASSAY_TARGET": "A549/ATCC NSCLC", "MEASURE_UNIT": "%", "growth": -45.7}

###

tested on: TK-10 renal; assay: NCI-60 one-dose screen, 48 h; conditions: 10 µM unless noted
About 83,000 compounds went through this panel and 20% of them were active in at least one assay; those are over-represented in the sample as a whole. Calls of active or inactive are those of the source. Rule for the calls: active = growth percent below 10; inactive = the rest.
Classes used: active, inactive

{"MOLECULE": "COc1cccc(Nc2ccnc3[nH]c4ccc([N+](=O)[O-])cc4c23)c1", "GROUP_LABEL": "inactive"}
{"MOLECULE": "CCOC(=O)/C=C/c1c(C)[nH]c(=O)[nH]c1=O", "GROUP_LABEL": "inactive"}
{"MOLECULE": "N=C(N)c1ccc(-c2ccc(-c3ccc(F)cc3)s2)s1", "GROUP_LABEL": "inactive"}
{"MOLECULE": "Cn1cc(/C=C2/C(=O)Nc3ccccc32)c2ccccc21", "GROUP_LABEL": "inactive"}
{"MOLECULE": "CCOC(=O)Cn1c(=O)c2c3ccccc3n(C)c2n2nnc(-c3ccccc3)c12", "GROUP_LABEL": "inactive"}
{"MOLECULE": "COc1ccc(/C(C)=C(\\c2ccc(OCCN3CCCCCC3)cc2)c2ccc(OC(=O)c3ccccc3)cc2)cc1", "GROUP_LABEL": "inactive"}
{"MOLECULE": "CCNCc1ccc(O)c2ncccc12", "GROUP_LABEL": "active"}
{"MOLECULE": "CCOC(=O)c1c(C)nn(CC(O)c2ccccc2)c1NC(=O)Nc1cccc(F)c1 (stereo not given)", "GROUP_LABEL": "inactive"}
{"MOLECULE": "Cc1ccc(C)c(-n2c(-c3ccc(Br)cc3)csc2=NC(=O)c2ccccc2F)c1", "GROUP_LABEL": "inactive"}
{"MOLECULE": "COc1cc(OC)cc(C2C(C#N)=C(N)Oc3c2ccc2ccc(O)cc32)c1 (stereo not given)", "GROUP_LABEL": "inactive"}

###

# reported growth; entries follow
system: CAKI-1 renal; assay: NCI-60 one-dose screen, 48 h (100 = growth as untreated, 0 = no growth, -100 = all killed); conditions: 10 µM unless noted
The panel holds about 83,000 compounds, 20% with a hit somewhere; the sample as a whole holds those more often.

{"SMILES_NOTATION": "CCCCCCC(=O)Nc1ncc(Cc2ccc(C)cc2)s1", "growth (%)": 35.2}
{"SMILES_NOTATION": "COC(=O)c1c2c(n3ccc(C)cc13)C(=O)c1ccccc1C2=O", "growth (%)": 59.2}
{"SMILES_NOTATION": "Cc1cc2oc(=O)cc(CP(=O)(O)O)c2cc1O", "growth (%)": 90.9}
